Target: furin, P09958;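 also: purified furin at 1:10 enzyme:substrate in 50 mM HEPES pH 7.5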
Sequence (P09958 whole entry): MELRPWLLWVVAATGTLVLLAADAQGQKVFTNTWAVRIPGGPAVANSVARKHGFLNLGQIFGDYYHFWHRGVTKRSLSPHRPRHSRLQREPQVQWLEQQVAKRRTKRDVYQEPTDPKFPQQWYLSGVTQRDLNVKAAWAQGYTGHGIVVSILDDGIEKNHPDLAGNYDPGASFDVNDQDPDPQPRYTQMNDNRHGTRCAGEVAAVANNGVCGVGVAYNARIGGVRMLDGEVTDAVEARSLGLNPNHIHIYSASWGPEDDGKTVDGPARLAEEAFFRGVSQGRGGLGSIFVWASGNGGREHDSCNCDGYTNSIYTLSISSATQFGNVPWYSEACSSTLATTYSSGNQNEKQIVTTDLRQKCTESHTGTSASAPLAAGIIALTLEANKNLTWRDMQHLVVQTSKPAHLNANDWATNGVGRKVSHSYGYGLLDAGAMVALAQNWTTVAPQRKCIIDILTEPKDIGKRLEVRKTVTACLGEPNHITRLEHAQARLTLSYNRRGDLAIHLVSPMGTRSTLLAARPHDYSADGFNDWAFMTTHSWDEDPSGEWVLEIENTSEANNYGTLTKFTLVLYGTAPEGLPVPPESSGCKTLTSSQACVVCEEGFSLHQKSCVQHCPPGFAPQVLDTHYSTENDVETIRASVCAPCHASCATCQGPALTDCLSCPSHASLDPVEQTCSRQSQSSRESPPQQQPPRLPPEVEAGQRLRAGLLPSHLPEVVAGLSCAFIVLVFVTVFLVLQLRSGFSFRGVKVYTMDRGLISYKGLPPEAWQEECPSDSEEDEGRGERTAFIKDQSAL
Experiment: furin cleavage Z-score vs untreated control; higher = more cleavage, active = 3.5 or more, inactive = 1 or less, 8 variable residues between constant flanks
Settings: 30 min
Some of the results follow. How many sequences the whole screen found active is unknown.
Below, each entry is listed with its recorded furin cleavage Z-score.
Give the figure by itself; no unit, no explanation.

Example entries and their recorded answers appear below.
Lab note: CAPAARRRRSAGNASASA [FS-1146] gave furin cleavage Z-score of 8.82

Lab note: CALAARRRRSAGNASASA [FS-264] gave furin cleavage Z-score of 8.11

Shift focus to the following entry.
Lab note: CAVFKRRRRSAGNASASA [FS-1101] gave furin cleavage Z-score of 8.61
